test system: LK-2; assay: relative viability (nuclei count vs DMSO), 5 days (fraction); higher = more cells survive; conditions: first compound 0.08 µM
measure-name: relative viability
Write the number on its own, no unit after it.

# annotated cases, reported relative viability shown
compound="O=c1cc(-c2cccc3c2Sc2ccccc2S3)oc(N2CCOCC2)c1 + NC(=O)Nc1cc(-c2cccc(F)c2)sc1C(=O)N[C@H]1CCCNC1 [AZD7762] (partner 0.2 µM)" recorded_measurement=0.468
compound="O=c1cc(-c2cccc3c2Sc2ccccc2S3)oc(N2CCOCC2)c1 + Cc1nc(NC(=O)N2CCC[C@H]2C(N)=O)sc1-c1ccnc(C(C)(C)C(F)(F)F)c1 [Alpelisib] (partner 2 µM)" recorded_measurement=1.22

Task: Specify the recorded relative viability for O=c1cc(-c2cccc3c2Sc2ccccc2S3)oc(N2CCOCC2)c1 + CCNC(=O)c1noc(-c2cc(C(C)C)c(O)cc2O)c1-c1ccc(CN2CCOCC2)cc1 [Luminespib] (partner 0.01 µM) , system: LK-2.
Output: 0.184

* * *

system: SK-LU-1; experiment: relative viability (nuclei count vs DMSO), 5 days (fraction); higher = more cells survive; conditions: first compound 0.08 µM
One threshold, 0.6, splits the recorded relative viability values: lower ones are rule met, equal or higher ones are rule not met.

Example entries and their recorded answers appear below.
molecule="COc1nc(C)cnc1NS(=O)(=O)c1cccnc1-c1ccc(-c2nnco2)cc1 [Zibotentan] + CCNC(=O)c1noc(-c2cc(C(C)C)c(O)cc2O)c1-c1ccc(CN2CCOCC2)cc1 [Luminespib] (partner 0.01 µM)" assayed_target=SK-LU-1 group_label="rule met"
molecule="O=c1cc(-c2cccc3c2Sc2ccccc2S3)oc(N2CCOCC2)c1 + CC(C)C[C@H](NC(=O)[C@H](Cc1ccccc1)NC(=O)c1cnccn1)B(O)O [Bortezomib] (partner 0.002 µM)" assayed_target=SK-LU-1 group_label="rule not met"
molecule="O=c1cc(-c2cccc3c2Sc2ccccc2S3)oc(N2CCOCC2)c1 + Cc1nc(NC(=O)N2CCC[C@H]2C(N)=O)sc1-c1ccnc(C(C)(C)C(F)(F)F)c1 [Alpelisib] (partner 2 µM)" assayed_target=SK-LU-1 group_label="rule not met"

Task: Item COc1nc(C)cnc1NS(=O)(=O)c1cccnc1-c1ccc(-c2nnco2)cc1 [Zibotentan] + CC1(C)CCC(c2ccc(Cl)cc2)=C(CN2CCN(c3ccc(C(=O)NS(=O)(=O)c4ccc(N[C@H](CCN5CCOCC5)CSc5ccccc5)c(S(=O)(=O)C(F)(F)F)c4)cc3)CC2)C1 [Navitoclax] (partner 0.5 µM) : relative viability beneath 0.6, strictly?
Output: rule not met

Task: Lab log: compare recorded relative viability with 0.6; is it strictly lower for COc1nc(C)cnc1NS(=O)(=O)c1cccnc1-c1ccc(-c2nnco2)cc1 [Zibotentan] + O=C(c1cc(Cc2n[nH]c(=O)c3ccccc23)ccc1F)N1CCN(C(=O)C2CC2)CC1 [Olaparib] (partner 8 µM) ?
Output: rule met

Task: Here's an entry: COc1nc(C)cnc1NS(=O)(=O)c1cccnc1-c1ccc(-c2nnco2)cc1 [Zibotentan] + CC(C)C[C@H](NC(=O)[C@H](Cc1ccccc1)NC(=O)c1cnccn1)B(O)O [Bortezomib] (partner 0.002 µM) . Is its relative viability below 0.6?
Output: rule not met

Task: Does this molecule meet the criterion relative viability < 0.6? O=c1cc(-c2cccc3c2Sc2ccccc2S3)oc(N2CCOCC2)c1 + Nc1ncn([C@H]2C[C@H](O)[C@@H](CO)O2)c(=O)n1 [Decitabine] (partner 2 µM)
Output: rule not met

* * *

test system: RERF-LC-KJ; test: relative viability (nuclei count vs DMSO), 5 days (fraction); higher = more cells survive; conditions: first compound 0.03162 µM
measure-name: relative viability
No unit in the answer, please; the number alone is enough.

Task: Give relative viability for the following compound: CCN(CC)CCCCNc1ncc2cc(-c3cc(OC)cc(OC)c3)c(NC(=O)NC(C)(C)C)nc2n1 + CC(C)C[C@H](NC(=O)[C@H](Cc1ccccc1)NC(=O)c1cnccn1)B(O)O [Bortezomib] (partner 0.002 µM)
Output: 1.15

* * *

system: NCI-H322M; assay: relative viability (nuclei count vs DMSO), 5 days (fraction); higher = more cells survive; conditions: first compound 0.03162 µM
Doc: threshold 0.8 (exclusive). Items with relative viability beneath it return true (1); others return false (0).

Reference set (5 entries):
compound="CCN(CC)CCCCNc1ncc2cc(-c3cc(OC)cc(OC)c3)c(NC(=O)NC(C)(C)C)nc2n1 + CC1(C)CCC(c2ccc(Cl)cc2)=C(CN2CCN(c3ccc(C(=O)NS(=O)(=O)c4ccc(N[C@H](CCN5CCOCC5)CSc5ccccc5)c(S(=O)(=O)C(F)(F)F)c4)cc3)CC2)C1 [Navitoclax] (partner 0.5 µM)" group_label="false (0)"
compound="CCN(CC)CCCCNc1ncc2cc(-c3cc(OC)cc(OC)c3)c(NC(=O)NC(C)(C)C)nc2n1 + C[C@]1(O)C[C@@H](c2nc(-c3ccc4ccc(-c5ccccc5)nc4c3)c3c(N)nccn32)C1 [Linsitinib] (partner 1 µM)" group_label="false (0)"
compound="CCN(CC)CCCCNc1ncc2cc(-c3cc(OC)cc(OC)c3)c(NC(=O)NC(C)(C)C)nc2n1 + O=C(CCCCCCC(=O)Nc1ccccc1)NO [Vorinostat] (partner 1 µM)" group_label="false (0)"
compound="CCN(CC)CCCCNc1ncc2cc(-c3cc(OC)cc(OC)c3)c(NC(=O)NC(C)(C)C)nc2n1 + COc1cccc2cc(-c3nc([C@H]4CC[C@H](C(=O)O)CC4)n4ncnc(N)c34)[nH]c12 [OSI-027] (partner 0.5 µM)" group_label="true (1)"
compound="O=c1cc(N2CCOCC2)oc2c(-c3cccc4c3sc3ccccc34)cccc12 + CC(=O)Nc1cccc(-n2c(=O)n(C3CC3)c(=O)c3c(Nc4ccc(I)cc4F)n(C)c(=O)c(C)c32)c1 [Trametinib] (partner 0.02 µM)" group_label="true (1)"

Next compound, please.
Task: Is 0.8 strictly greater than the compound's reported relative viability? compound: CCN(CC)CCCCNc1ncc2cc(-c3cc(OC)cc(OC)c3)c(NC(=O)NC(C)(C)C)nc2n1 + CC(=O)c1c(C)c2cnc(Nc3ccc(N4CCNCC4)cn3)nc2n(C2CCCC2)c1=O [Palbociclib] (partner 0.5 µM)
Output: true (1)

* * *

system: LK-2; assay: relative viability (nuclei count vs DMSO), 5 days (fraction); higher = more cells survive; settings: first compound 0.253 µM
Exam item: assign Yes to entries whose relative viability is below 0.3 and No to entries at or above 0.3. Note that a value of exactly 0.3 receives No.

molecule="COc1nc(C)cnc1NS(=O)(=O)c1cccnc1-c1ccc(-c2nnco2)cc1 [Zibotentan] + NC(=O)Nc1cc(-c2cccc(F)c2)sc1C(=O)N[C@H]1CCCNC1 [AZD7762] (partner 0.2 µM)" group_label=No

Pending molecule:
Task: Is relative viability of O=c1cc(-c2cccc3c2Sc2ccccc2S3)oc(N2CCOCC2)c1 + O=C(CCCCCCC(=O)Nc1ccccc1)NO [Vorinostat] (partner 1 µM) strictly below 0.3?
Output: No

* * *

tested on: NCI-H1793; experiment: relative viability (nuclei count vs DMSO), 5 days (fraction); higher = more cells survive; settings: first compound 0.253 µM
Please use true for relative viability under 0.4 and false for everything else, ties included.

// below: answered compounds
compound="O=c1cc(-c2cccc3c2Sc2ccccc2S3)oc(N2CCOCC2)c1 + CCNC(=O)c1noc(-c2cc(C(C)C)c(O)cc2O)c1-c1ccc(CN2CCOCC2)cc1 [Luminespib] (partner 0.01 µM)" group_label=true
compound="COc1nc(C)cnc1NS(=O)(=O)c1cccnc1-c1ccc(-c2nnco2)cc1 [Zibotentan] + Nc1ncn([C@H]2C[C@H](O)[C@@H](CO)O2)c(=O)n1 [Decitabine] (partner 2 µM)" group_label=false
compound="O=c1cc(-c2cccc3c2Sc2ccccc2S3)oc(N2CCOCC2)c1 + Cc1cc(Nc2cc(N3CCN(C)CC3)nc(Sc3ccc(NC(=O)C4CC4)cc3)n2)n[nH]1 [Tozasertib] (partner 0.1 µM)" group_label=true
compound="O=c1cc(-c2cccc3c2Sc2ccccc2S3)oc(N2CCOCC2)c1 + Cc1nc(Nc2ncc(C(=O)Nc3c(C)cccc3Cl)s2)cc(N2CCN(CCO)CC2)n1 [Dasatinib] (partner 0.075 µM)" group_label=false

Here is another compound to look at.
Task: Item COc1nc(C)cnc1NS(=O)(=O)c1cccnc1-c1ccc(-c2nnco2)cc1 [Zibotentan] + O=C(CCCCCCC(=O)Nc1ccccc1)NO [Vorinostat] (partner 1 µM) : relative viability beneath 0.4, strictly?
Output: false

* * *

tested on: NCI-H647; experiment: relative viability (nuclei count vs DMSO), 5 days (fraction); higher = more cells survive; details: first compound 0.08 µM
Binary call on relative viability with cut-off 0.7: strictly below means Condition met, and equality or higher means Condition not met.

compound="O=c1cc(-c2cccc3c2Sc2ccccc2S3)oc(N2CCOCC2)c1 + COc1cc2c(Oc3ccc(NC(=O)C4(C(=O)Nc5ccc(F)cc5)CC4)cc3F)ccnc2cc1OCCCN1CCOCC1 [Foretinib] (partner 0.25 µM)" group_label="Condition not met"
compound="O=c1cc(-c2cccc3c2Sc2ccccc2S3)oc(N2CCOCC2)c1 + NC(=O)Nc1cc(-c2cccc(F)c2)sc1C(=O)N[C@H]1CCCNC1 [AZD7762] (partner 0.2 µM)" group_label="Condition met"
compound="COc1nc(C)cnc1NS(=O)(=O)c1cccnc1-c1ccc(-c2nnco2)cc1 [Zibotentan] + Cc1cc(Nc2cc(N3CCN(C)CC3)nc(Sc3ccc(NC(=O)C4CC4)cc3)n2)n[nH]1 [Tozasertib] (partner 0.1 µM)" group_label="Condition met"
compound="O=c1cc(-c2cccc3c2Sc2ccccc2S3)oc(N2CCOCC2)c1 + Cc1nc(NC(=O)N2CCC[C@H]2C(N)=O)sc1-c1ccnc(C(C)(C)C(F)(F)F)c1 [Alpelisib] (partner 2 µM)" group_label="Condition not met"
compound="COc1nc(C)cnc1NS(=O)(=O)c1cccnc1-c1ccc(-c2nnco2)cc1 [Zibotentan] + CC1(C)CCC(c2ccc(Cl)cc2)=C(CN2CCN(c3ccc(C(=O)NS(=O)(=O)c4ccc(N[C@H](CCN5CCOCC5)CSc5ccccc5)c(S(=O)(=O)C(F)(F)F)c4)cc3)CC2)C1 [Navitoclax] (partner 0.5 µM)" group_label="Condition not met"

Task: Report whether reported relative viability is lower than 0.7 (strictly) for O=c1cc(-c2cccc3c2Sc2ccccc2S3)oc(N2CCOCC2)c1 + CC(C)C[C@H](NC(=O)[C@H](Cc1ccccc1)NC(=O)c1cnccn1)B(O)O [Bortezomib] (partner 0.002 µM)
Output: Condition not met
